Source listed as patent US20230406935A1.

target: Biotinylated hPD-L1-Fc-Avi (human, UniProt Q9NZQ7 19-238); experiment: cell-based RBA, blocking of hPD-L1-Fc-Avi binding to HEK293 hCD80 cells
Sequence (Q9NZQ7 19-238 limits assumed): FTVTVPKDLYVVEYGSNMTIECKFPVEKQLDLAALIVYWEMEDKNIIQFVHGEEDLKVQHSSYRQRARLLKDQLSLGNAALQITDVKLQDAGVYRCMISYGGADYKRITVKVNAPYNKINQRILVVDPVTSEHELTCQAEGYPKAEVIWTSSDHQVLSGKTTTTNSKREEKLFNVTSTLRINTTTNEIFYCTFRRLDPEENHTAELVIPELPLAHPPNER
Hi there, I'd appreciate the recorded EC50 for every entry that follows.
Numbers only, in nM.

INSERT INTO results (binder, endpoint_result) VALUES
  ('Fcab FS17-33-288 (designed binder) TCPPCPAPELLGGPSVFLFPPKPKDTLMISRTPEVTCVVVDVSHEDPEVKFNWYVDGVEVHNAKTKPREEQYNSTYRVVSVLTVLHQDWLNGKEYKCKVSNKALPAPIEKTISKAKGQPREPQVYTLPPSRDESGYWVSLTCLVKGFYPSDIVVEWESNGEPQYWAKTTPPVLDSDGSFFLYSKLTVSNWRWQIDDFSCSVMHEALHNHYTQKSLSLSPGK', 0.79);

Please examine the following record next.
Query (binder): Fcab FS17-33-296 (designed binder) TCPPCPAPELLGGPSVFLFPPKPKDTLMISRTPEVTCVVVDVSHEDPEVKFNWYVDGVEVHNAKTKPREEQYNSTYRVVSVLTVLHQDWLNGKEYKCKVSNKALPAPIEKTISKAKGQPREPQVYTLPPSRDESGYWVSLTCLVKGFYPSDIVVEWESNGEPQYWAKTTPPVLDSDGSFFLYSKLTVSNWRWQVDDFSCSVMHEALHNHYTQKSLSLSPGK ; field requested: EC50 8.8
